- setup.conditions: in propionic acid, 303.15 K
observable: solubility (mole fraction)
Would you mind answering with just the numeric figure?

*Q* I am curious: what solubility (mole fraction) value has been reported for CS(=O)(=O)c1ccc([C@@H](O)[C@@H](CF)NC(=O)C(Cl)Cl)cc1 ?
*A* 0.00073

###

- setup.conditions: in 2-ethylhexanol, 318.15 K
observable: solubility (mole fraction)
Would you mind answering with just the numeric figure?

*Q* I am curious: what solubility (mole fraction) value has been reported for CS(=O)(=O)c1ccc([C@@H](O)[C@@H](CF)NC(=O)C(Cl)Cl)cc1 ?
*A* 0.00103

###

- setup.conditions: in n-propanol, 318.15 K
observable: solubility (mole fraction)
Would you mind answering with just the numeric figure?

*Q* I am curious: what solubility (mole fraction) value has been reported for CS(=O)(=O)c1ccc([C@@H](O)[C@@H](CF)NC(=O)C(Cl)Cl)cc1 ?
*A* 0.00563

###

- setup.conditions: in isobutanol, 303.15 K
observable: solubility (mole fraction)
Would you mind answering with just the numeric figure?

*Q* I am curious: what solubility (mole fraction) value has been reported for CS(=O)(=O)c1ccc([C@@H](O)[C@@H](CF)NC(=O)C(Cl)Cl)cc1 ?
*A* 0.000819

###

- setup.conditions: in isobutanol, 323.15 K
observable: solubility (mole fraction)
Would you mind answering with just the numeric figure?

*Q* I am curious: what solubility (mole fraction) value has been reported for CS(=O)(=O)c1ccc([C@@H](O)[C@@H](CF)NC(=O)C(Cl)Cl)cc1 ?
*A* 0.00224

###

- setup.conditions: in ethanol, 293.15 K
observable: solubility (mole fraction)

*Q* I am curious: what solubility (mole fraction) value has been reported for CS(=O)(=O)c1ccc([C@@H](O)[C@@H](CF)NC(=O)C(Cl)Cl)cc1 ?
*A* 0.00244

###

- setup.conditions: in propionic acid, 293.15 K
observable: solubility (mole fraction)
Would you mind answering with just the numeric figure?

*Q* I am curious: what solubility (mole fraction) value has been reported for CS(=O)(=O)c1ccc([C@@H](O)[C@@H](CF)NC(=O)C(Cl)Cl)cc1 ?
*A* 0.000447

###

- setup.conditions: in ethanol, 318.15 K
observable: solubility (mole fraction)
Would you mind answering with just the numeric figure?

*Q* I am curious: what solubility (mole fraction) value has been reported for CS(=O)(=O)c1ccc([C@@H](O)[C@@H](CF)NC(=O)C(Cl)Cl)cc1 ?
*A* 0.00702

###

- setup.conditions: in n-butanol, 293.15 K
observable: solubility (mole fraction)
Would you mind answering with just the numeric figure?

*Q* I am curious: what solubility (mole fraction) value has been reported for CS(=O)(=O)c1ccc([C@@H](O)[C@@H](CF)NC(=O)C(Cl)Cl)cc1 ?
*A* 0.000821

###

- setup.conditions: in ethanol, 303.15 K
observable: solubility (mole fraction)
Would you mind answering with just the numeric figure?

*Q* I am curious: what solubility (mole fraction) value has been reported for CS(=O)(=O)c1ccc([C@@H](O)[C@@H](CF)NC(=O)C(Cl)Cl)cc1 ?
*A* 0.00369

###

- setup.conditions: in ethanol, 288.15 K
observable: solubility (mole fraction)
Would you mind answering with just the numeric figure?

*Q* I am curious: what solubility (mole fraction) value has been reported for CS(=O)(=O)c1ccc([C@@H](O)[C@@H](CF)NC(=O)C(Cl)Cl)cc1 ?
*A* 0.00196

###

- setup.conditions: in n-propanol, 298.15 K
observable: solubility (mole fraction)
Would you mind answering with just the numeric figure?

*Q* I am curious: what solubility (mole fraction) value has been reported for CS(=O)(=O)c1ccc([C@@H](O)[C@@H](CF)NC(=O)C(Cl)Cl)cc1 ?
*A* 0.00215

###

- setup.conditions: in n-propanol, 283.15 K
observable: solubility (mole fraction)

*Q* I am curious: what solubility (mole fraction) value has been reported for CS(=O)(=O)c1ccc([C@@H](O)[C@@H](CF)NC(=O)C(Cl)Cl)cc1 ?
*A* 0.000974

###

- setup.conditions: in n-propanol, 313.15 K
observable: solubility (mole fraction)
Would you mind answering with just the numeric figure?

*Q* I am curious: what solubility (mole fraction) value has been reported for CS(=O)(=O)c1ccc([C@@H](O)[C@@H](CF)NC(=O)C(Cl)Cl)cc1 ?
*A* 0.00437

###

- setup.conditions: in 2-ethylhexanol, 308.15 K
observable: solubility (mole fraction)
Would you mind answering with just the numeric figure?

*Q* I am curious: what solubility (mole fraction) value has been reported for CS(=O)(=O)c1ccc([C@@H](O)[C@@H](CF)NC(=O)C(Cl)Cl)cc1 ?
*A* 0.000635

###

- setup.conditions: in isopentanol, 318.15 K
observable: solubility (mole fraction)
Would you mind answering with just the numeric figure?

*Q* I am curious: what solubility (mole fraction) value has been reported for CS(=O)(=O)c1ccc([C@@H](O)[C@@H](CF)NC(=O)C(Cl)Cl)cc1 ?
*A* 0.00238

Data credit: BigSolDB 2.1
